experimental_system: T1, Ax1 protein, extracellular domain (human, UniProt P30530 26-451)
T1 construct: extracellular domain; also called Axl; Ark
T1 sequence (looked up): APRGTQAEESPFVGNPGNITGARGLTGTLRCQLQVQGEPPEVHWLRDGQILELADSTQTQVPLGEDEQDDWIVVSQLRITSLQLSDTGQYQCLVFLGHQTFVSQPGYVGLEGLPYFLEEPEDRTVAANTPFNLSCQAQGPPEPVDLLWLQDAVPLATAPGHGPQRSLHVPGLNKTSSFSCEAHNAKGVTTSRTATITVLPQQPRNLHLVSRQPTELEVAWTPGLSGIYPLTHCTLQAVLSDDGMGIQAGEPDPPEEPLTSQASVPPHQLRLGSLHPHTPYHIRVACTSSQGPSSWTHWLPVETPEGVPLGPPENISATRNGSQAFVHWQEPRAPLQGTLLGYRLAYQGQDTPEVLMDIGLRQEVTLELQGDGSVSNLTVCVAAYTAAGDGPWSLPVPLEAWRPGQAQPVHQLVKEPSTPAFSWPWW
procedure_text: ELISA, mutant diluted 1:9
readout: Affinity ELISA CPE mutant ratio (1:9, pH 6.0/7.4)

Q. Determine its reported Affinity ELISA CPE mutant ratio (1:9, pH 6.0/7.4): LC-P095D (antibody, V domains shown, CPE single point mutant) VH: EVQLVQSGAEVKKPGATVKISCKVSGYSFTGHTMNWIRQPPGKGLEWIGLIKPSNGGTSYNQKFKGRVTISADKSISTAYLQWSSLKASDTAMYYCAHGHYESYFAMDYWGQGTLVTVSS VL: DIQMTQSPSSLSASVGDRVTITCKASQDVSSAVAWYQQKPGQAPRLLIYWASTRHTGVPSRFSGSGSGTEFTLTISSLQPDDFATYYCQEHFSTDLTFGQGTKVEIK
A. 2.89

Q. Determine its reported Affinity ELISA CPE mutant ratio (1:9, pH 6.0/7.4): HC-B102I (antibody, V domains shown, CPE single point mutant; printed B102, read as E102 (other rows print HC-E102x)) VH: EVQLVQSGAEVKKPGATVKISCKVSGYSFTGHTMNWIRQPPGKGLEWIGLIKPSNGGTSYNQKFKGRVTISADKSISTAYLQWSSLKASDTAMYYCAHGHYISYFAMDYWGQGTLVTVSS VL: DIQMTQSPSSLSASVGDRVTITCKASQDVSSAVAWYQQKPGQAPRLLIYWASTRHTGVPSRFSGSGSGTEFTLTISSLQPDDFATYYCQEHFSTPLTFGQGTKVEIK
A. 1.7
